Biological target: Protein cereblon/Eukaryotic elongation factor 2 kinase (Homo sapiens) (UniProt O00418+Q96SW2)
Sequence (O00418 whole entry, looked up): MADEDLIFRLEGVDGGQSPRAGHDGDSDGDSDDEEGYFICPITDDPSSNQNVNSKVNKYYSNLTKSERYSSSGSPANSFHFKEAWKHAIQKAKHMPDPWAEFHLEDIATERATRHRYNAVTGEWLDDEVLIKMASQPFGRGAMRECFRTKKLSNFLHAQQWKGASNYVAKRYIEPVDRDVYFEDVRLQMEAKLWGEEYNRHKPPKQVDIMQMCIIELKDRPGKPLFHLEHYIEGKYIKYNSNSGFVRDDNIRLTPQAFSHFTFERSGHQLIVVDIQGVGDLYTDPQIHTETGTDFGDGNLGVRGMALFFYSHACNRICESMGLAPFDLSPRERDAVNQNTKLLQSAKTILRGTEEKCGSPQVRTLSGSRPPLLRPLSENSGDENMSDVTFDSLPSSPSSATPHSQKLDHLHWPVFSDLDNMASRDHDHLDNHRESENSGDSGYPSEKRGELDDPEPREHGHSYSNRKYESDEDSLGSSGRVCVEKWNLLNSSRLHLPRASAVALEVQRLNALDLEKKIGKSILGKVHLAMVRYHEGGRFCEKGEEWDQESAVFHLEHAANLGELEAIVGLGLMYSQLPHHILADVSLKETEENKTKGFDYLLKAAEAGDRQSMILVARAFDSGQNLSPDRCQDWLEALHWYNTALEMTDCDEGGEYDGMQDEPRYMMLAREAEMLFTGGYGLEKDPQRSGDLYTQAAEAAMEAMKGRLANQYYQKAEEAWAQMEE
Sequence (Q96SW2 whole entry, looked up): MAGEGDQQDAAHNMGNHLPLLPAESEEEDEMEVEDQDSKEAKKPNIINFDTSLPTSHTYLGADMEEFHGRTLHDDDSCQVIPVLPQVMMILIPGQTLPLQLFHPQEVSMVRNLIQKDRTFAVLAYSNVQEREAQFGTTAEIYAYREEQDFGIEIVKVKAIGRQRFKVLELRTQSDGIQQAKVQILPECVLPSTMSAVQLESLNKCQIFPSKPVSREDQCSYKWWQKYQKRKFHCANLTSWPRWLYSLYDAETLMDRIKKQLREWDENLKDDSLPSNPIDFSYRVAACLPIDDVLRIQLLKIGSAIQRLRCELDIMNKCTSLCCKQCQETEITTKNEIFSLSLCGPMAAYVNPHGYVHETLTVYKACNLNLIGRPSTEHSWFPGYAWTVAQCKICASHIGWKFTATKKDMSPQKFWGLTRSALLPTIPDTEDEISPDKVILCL
Experiment: Protac activity at eEF2K/E3 ubiquitin ligase in human MDA-MB-231 cells assessed as degradation of eEF2K at 200 uM measured after 24 hrs by western blot assay
Assay type: cell-based
Calls of active or inactive are those of the source. The calls are words filed in the database; no cut-off is given here.
Quantity kind: Activity

Q: Name the recorded Activity of the item NC(=O)c1cc2c(=O)n(CC(=O)NCCCCCCNc3cccc4c3C(=O)N(C3CCC(=O)NC3=O)C4=O)c(=O)n(C3CC3)c2nc1N (configuration not stated) in your answer.
Ans: inactive

Q: Name the recorded Activity of the item CCn1c(=O)n(CC(=O)NCCOCCNC(=O)COc2cccc3c2C(=O)N(C2CCC(=O)NC2=O)C3=O)c(=O)c2cc(C(N)=O)c(N)nc21 (configuration not stated) in your answer.
Ans: 56.7%

Q: Name the recorded Activity of the item CCn1c(=O)n(CC(=O)NCCNc2cccc3c2C(=O)N(C2CCC(=O)NC2=O)C3=O)c(=O)c2cc(C(N)=O)c(N)nc21 (configuration not stated) in your answer.
Ans: inactive

Q: Name the recorded Activity of the item CCn1c(=O)n(CC(=O)NCCCNC(=O)COc2cccc3c2C(=O)N(C2CCC(=O)NC2=O)C3=O)c(=O)c2cc(C(N)=O)c(N)cc21 (configuration not stated) in your answer.
Ans: 15.4%

Q: Name the recorded Activity of the item NC(=O)c1cc2c(=O)n(CC(=O)NCCOCCNC(=O)COc3cccc4c3C(=O)N(C3CCC(=O)NC3=O)C4=O)c(=O)n(C3CC3)c2cc1N (configuration not stated) in your answer.
Ans: inactive

Q: Name the recorded Activity of the item CCn1c(=O)n(CC(=O)NCCCCCNc2cccc3c2C(=O)N(C2CCC(=O)NC2=O)C3=O)c(=O)c2cc(C(N)=O)c(N)cc21 (configuration not stated) in your answer.
Ans: 24%

Others:
Q: Name the recorded Activity of the item NC(=O)c1cc2c(=O)n(CC(=O)NCCCCNC(=O)COc3cccc4c3C(=O)N(C3CCC(=O)NC3=O)C4=O)c(=O)n(C3CC3)c2nc1N (configuration not stated) in your answer.
Ans: inactive

====

Target: Protein cereblon/Eukaryotic elongation factor 2 kinase (Homo sapiens) (UniProt O00418+Q96SW2)
Experiment: Protac activity at eEF2K/E3 ubiquitin ligase in human MDA-MB-231 cells assessed as degradation of eEF2K at 200 uM measured after 24 hrs by western blot assay
Type: cell-based
Calls of active or inactive are those of the source. The rule behind the calls is not given here.
Quantity kind: Activity

Example results:
Q: Name the recorded Activity of the item CCn1c(=O)n(CC(=O)NCCCCNc2cccc3c2C(=O)N(C2CCC(=O)NC2=O)C3=O)c(=O)c2cc(C(N)=O)c(N)nc21 (configuration not stated) in your answer.
Ans: 35%

Q: Name the recorded Activity of the item CCn1c(=O)n(CC(=O)NCCCCCNC(=O)COc2cccc3c2C(=O)N(C2CCC(=O)NC2=O)C3=O)c(=O)c2cc(C(N)=O)c(N)cc21 (configuration not stated) in your answer.
Ans: 32%

Q: Name the recorded Activity of the item NC(=O)c1cc2c(=O)n(CC(=O)NCCCNc3cccc4c3C(=O)N(C3CCC(=O)NC3=O)C4=O)c(=O)n(C3CC3)c2nc1N (configuration not stated) in your answer.
Ans: inactive

Q: Name the recorded Activity of the item NC(=O)c1cc2c(=O)n(CC(=O)NCCCCCNC(=O)COc3cccc4c3C(=O)N(C3CCC(=O)NC3=O)C4=O)c(=O)n(C3CC3)c2cc1N (configuration not stated) in your answer.
Ans: inactive

Others:
Q: Name the recorded Activity of the item CCn1c(=O)n(CC(=O)NCCCCCCNc2cccc3c2C(=O)N(C2CCC(=O)NC2=O)C3=O)c(=O)c2cc(C(N)=O)c(N)nc21 (configuration not stated) in your answer.
Ans: 20%

Q: Name the recorded Activity of the item NC(=O)c1cc2c(=O)n(CC(=O)NCCNc3cccc4c3C(=O)N(C3CCC(=O)NC3=O)C4=O)c(=O)n(C3CC3)c2nc1N (configuration not stated) in your answer.
Ans: inactive

Q: Name the recorded Activity of the item CCn1c(=O)n(CC(=O)NCCCCNC(=O)COc2cccc3c2C(=O)N(C2CCC(=O)NC2=O)C3=O)c(=O)c2cc(C(N)=O)c(N)nc21 (configuration not stated) in your answer.
Ans: 26%

Q: Name the recorded Activity of the item CCn1c(=O)n(CC(=O)NCCOCCNc2cccc3c2C(=O)N(C2CCC(=O)NC2=O)C3=O)c(=O)c2cc(C(N)=O)c(N)cc21 (configuration not stated) in your answer.
Ans: 15%

Q: Name the recorded Activity of the item NC(=O)c1cc2c(=O)n(CC(=O)NCCCCCCNC(=O)COc3cccc4c3C(=O)N(C3CCC(=O)NC3=O)C4=O)c(=O)n(C3CC3)c2nc1N (configuration not stated) in your answer.
Ans: inactive

Q: Name the recorded Activity of the item NC(=O)c1cc2c(=O)n(CC(=O)NCCNC(=O)COc3cccc4c3C(=O)N(C3CCC(=O)NC3=O)C4=O)c(=O)n(C3CC3)c2nc1N (configuration not stated) in your answer.
Ans: inactive

Q: Name the recorded Activity of the item NC(=O)c1cc2c(=O)n(CC(=O)NCCCCNc3cccc4c3C(=O)N(C3CCC(=O)NC3=O)C4=O)c(=O)n(C3CC3)c2nc1N (configuration not stated) in your answer.
Ans: inactive

Q: Name the recorded Activity of the item NC(=O)c1cc2c(=O)n(CC(=O)NCCOCCNc3cccc4c3C(=O)N(C3CCC(=O)NC3=O)C4=O)c(=O)n(C3CC3)c2cc1N (configuration not stated) in your answer.
Ans: inactive

Q: Name the recorded Activity of the item NC(=O)c1cc2c(=O)n(CC(=O)NCCCCCNc3cccc4c3C(=O)N(C3CCC(=O)NC3=O)C4=O)c(=O)n(C3CC3)c2cc1N (configuration not stated) in your answer.
Ans: inactive

Q: Name the recorded Activity of the item CCn1c(=O)n(CC(=O)NCCNC(=O)COc2cccc3c2C(=O)N(C2CCC(=O)NC2=O)C3=O)c(=O)c2cc(C(N)=O)c(N)nc21 (configuration not stated) in your answer.
Ans: 10%

Q: Name the recorded Activity of the item NC(=O)c1cc2c(=O)n(CC(=O)NCCCNC(=O)COc3cccc4c3C(=O)N(C3CCC(=O)NC3=O)C4=O)c(=O)n(C3CC3)c2cc1N (configuration not stated) in your answer.
Ans: inactive

Q: Name the recorded Activity of the item CCn1c(=O)n(CC(=O)NCCCNc2cccc3c2C(=O)N(C2CCC(=O)NC2=O)C3=O)c(=O)c2cc(C(N)=O)c(N)nc21 (configuration not stated) in your answer.
Ans: 20%

Q: Name the recorded Activity of the item CCn1c(=O)n(CC(=O)NCCCCCCNC(=O)COc2cccc3c2C(=O)N(C2CCC(=O)NC2=O)C3=O)c(=O)c2cc(C(N)=O)c(N)nc21 (configuration not stated) in your answer.
Ans: 35.3%

Measured values drawn from ChEMBL document CHEMBL4706525 for this set.
